Source: patent US9546129B2

test: 10-day repeat-dose toxicity and toxicokinetics study in dogs; format: in vivo, Beagle dog; settings: female, Beagle, dog, plasma, po; females, 200 mg/kg/day, after 10 days of dosing; read-out: C2E2 AUC0-24
Measured Parameter: AUC(0-t) (µg·h/mL)
Give bare numbers, in µg·h/mL.

For CCOC(=O)CN(CCN(CCN(CC(=O)O)CC(=O)OCC)CC(=O)O)CC(=O)O [C2E2] , what is its reported AUC(0-t)?
184
